test system: VDR homodimer (NR concentration 270 nM); test: PBM binding z-score (relative to random genomic background probes); higher = stronger binding; sequences stand for … in GC…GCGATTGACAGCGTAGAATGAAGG
Bucketed by reported PBM binding z-score, buckets being low group: < 0.2; middle group: ≥ 0.2 and < 2; high group: ≥ 2

## Input Bin this entry: `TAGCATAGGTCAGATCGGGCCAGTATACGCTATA`
## Output low group

## Input Another sequence: `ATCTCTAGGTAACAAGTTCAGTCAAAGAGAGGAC`
## Output high group

## Input Same for `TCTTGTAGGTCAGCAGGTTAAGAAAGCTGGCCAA`
## Output low group

## Input Another sequence to check: `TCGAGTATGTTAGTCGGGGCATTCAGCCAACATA`
## Output middle group

## Input Next sequence up: `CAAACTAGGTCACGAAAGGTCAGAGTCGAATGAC`
## Output high group

## Input What about this sequence? `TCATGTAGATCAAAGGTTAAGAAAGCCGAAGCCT`
## Output low group

## Input What do you have for `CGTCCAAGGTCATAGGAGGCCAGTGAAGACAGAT` ?
## Output high group

## Input Please answer likewise for `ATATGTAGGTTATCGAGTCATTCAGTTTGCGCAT`
## Output middle group

## Input One more sequence: `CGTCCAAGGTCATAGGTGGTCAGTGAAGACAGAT`
## Output high group

## Input For `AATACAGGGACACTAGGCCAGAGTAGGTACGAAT` then?
## Output middle group

## Input And then `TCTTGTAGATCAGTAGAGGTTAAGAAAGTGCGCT` , what is it?
## Output middle group

## Input And `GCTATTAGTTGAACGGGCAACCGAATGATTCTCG` ?
## Output low group

## Input // repeat for `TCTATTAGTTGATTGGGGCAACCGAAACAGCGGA` and report
## Output middle group

## Input Please give the result for `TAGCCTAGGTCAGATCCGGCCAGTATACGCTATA` too.
## Output low group

## Input `CCTGCTAGGTCAATGGTCATCTAAAGCAGCTCGC` ?
## Output middle group

## Input Repeat for the following sequence: `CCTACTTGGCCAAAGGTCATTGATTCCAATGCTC`
## Output high group

## Input Same read-out for `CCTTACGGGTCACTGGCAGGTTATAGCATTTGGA` ?
## Output middle group

## Input Queued: `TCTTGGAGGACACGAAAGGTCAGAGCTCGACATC`
## Output middle group

## Input Similarly, `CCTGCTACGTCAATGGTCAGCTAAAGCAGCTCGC` ?
## Output low group

## Input Follow-up item: `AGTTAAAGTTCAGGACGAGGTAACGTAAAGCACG`
## Output high group

## Input Request: `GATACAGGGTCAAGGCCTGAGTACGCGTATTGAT`
## Output high group

## Input Another sequence to check: `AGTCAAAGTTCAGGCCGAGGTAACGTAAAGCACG`
## Output high group

## Input Then what about the sequence `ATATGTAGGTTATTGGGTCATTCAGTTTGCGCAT` ?
## Output high group

## Input Next up: `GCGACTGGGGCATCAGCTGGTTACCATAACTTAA`
## Output low group
